System: Streptococcus
protocol-details: Minimum inhibitory concentration required in vitro against Streptococcus D
Type: functional
experimental-readout: MIC (µM)
Numbers only; they are read as µM.

As a guide, the following entries are already answered.
* CC(C)(C)Nc1cc2c(cc1[N+](=O)[O-])c(=O)c(C(=O)O)cn2C1CC1 | 0.6
* O=C(O)c1cn(C2CC2)c2cc(NC3CC3)c([N+](=O)[O-])cc2c1=O | 0.8
* CC(C)(C)n1cc(C(=O)O)c(=O)c2cc([N+](=O)[O-])c(NC3CC3)cc21 | 5
* O=C(O)c1cn(C2CC2)c2cc(NC3CC3)c(F)cc2c1=O | 12

Okay, next one:
Task item: Which MIC is listed for "Nc1cc2c(=O)c(C(=O)O)cn(C3CC3)c2cc1NC1CC1" ?
Reply: 50

Sourced from ChEMBL document CHEMBL1131748
